- assay-details: Cytotoxicity against MDCK cells incubated for 48 hrs by MTT assay
- Assay type: toxicity, cell-based, Canis lupus familiaris
- assay-conditions: dog
Reported CC50 at 48 h values for a set of compounds

smiles-string	CC50 at 48 h
COC(=O)[C@@H]1Cc2cc(O)c(O)cc2[C@H](Cc2ccc(O)c(O)c2)N1C(=O)c1ccc(Cl)cc1Cl	> 101 µM
O=C1c2c(O)c(=O)ccn2N([C@@H]2c3ccccc3SCc3c2ccc(F)c3F)[C@@H]2COCCN12	> 100 µM
COC(=O)[C@@H]1Cc2cc(O)c(O)cc2[C@H](Cc2ccc(O)c(O)c2)N1C(=O)c1cccc(Br)c1	> 101 µM
